Attribution: the supplement of paper PMC9112550

Test system: Escherichia coli TOP10
Experiment summary: shrunken log2 fold change of peptide-encoding DNA abundance (4.5 h post-induction vs induction); higher = less antimicrobial activity (less host growth inhibition)
Test settings: time post-induction: 4.5 h; library: site-saturation at positions 5, 18, 19, 20

# Biopolymer sequence, shrunken log2 fold change
records = [
    ("RRIRKRPPRLPRPRPRPQNMPRP", -0.521),
    ("RRIRARPPRLPRPRPRPIKAPRP", 0.105),
    ("RRIRCRPPRLPRPRPRPSVVPRP", -0.261),
    ("RRIRIRPPRLPRPRPRPRGNPRP", -0.0419),
    ("RRIRKRPPRLPRPRPRPSGPPRP", 0.0366),
    ("RRIRKRPPRLPRPRPRPGPAPRP", 1.05),
    ("RRIRCRPPRLPRPRPRPSLDPRP", -0.203),
    ("RRIRERPPRLPRPRPRPHMMPRP", -1.14),
    ("RRIRFRPPRLPRPRPRPRDWPRP", 0.308),
    ("RRIRRRPPRLPRPRPRPDIAPRP", -0.0619),
    ("RRIRERPPRLPRPRPRPAIHPRP", 0.125),
    ("RRIRKRPPRLPRPRPRPIASPRP", 0.0246),
    ("RRIRWRPPRLPRPRPRPPMEPRP", -0.131),
    ("RRIRGRPPRLPRPRPRPGKNPRP", 0.0656),
    ("RRIRPRPPRLPRPRPRPWAKPRP", -0.0178),
]

====

Test system: Escherichia coli TOP10
Experiment summary: shrunken log2 fold change of peptide-encoding DNA abundance (4.5 h post-induction vs induction); higher = less antimicrobial activity (less host growth inhibition)
Test settings: time post-induction: 4.5 h; library: site-saturation at positions 5, 18, 19, 20

# Biopolymer sequence, Test target, shrunken log2 fold change
measured = [
    ("RRIRKRPPRLPRPRPRPNFFPRP", "Escherichia coli TOP10", 0.0314),
    ("RRIRNRPPRLPRPRPRPTECPRP", "Escherichia coli TOP10", -0.0689),
    ("RRIRSRPPRLPRPRPRPPNWPRP", "Escherichia coli TOP10", 0.504),
    ("RRIRIRPPRLPRPRPRPPHQPRP", "Escherichia coli TOP10", 0.000816),
    ("RRIRYRPPRLPRPRPRPWYDPRP", "Escherichia coli TOP10", -0.109),
    ("RRIRERPPRLPRPRPRPGNAPRP", "Escherichia coli TOP10", -0.0685),
    ("RRIRLRPPRLPRPRPRPPPIPRP", "Escherichia coli TOP10", 0.935),
    ("RRIRRRPPRLPRPRPRPVDWPRP", "Escherichia coli TOP10", 0.577),
    ("RRIRARPPRLPRPRPRPKSGPRP", "Escherichia coli TOP10", 0.166),
    ("RRIRFRPPRLPRPRPRPIGDPRP", "Escherichia coli TOP10", -0.033),
    ("RRIRGRPPRLPRPRPRPATFPRP", "Escherichia coli TOP10", 0.326),
    ("RRIRARPPRLPRPRPRPSTSPRP", "Escherichia coli TOP10", -0.322),
    ("RRIRRRPPRLPRPRPRPAHIPRP", "Escherichia coli TOP10", 0.0825),
    ("RRIRARPPRLPRPRPRPLDAPRP", "Escherichia coli TOP10", 0.746),
    ("RRIRYRPPRLPRPRPRPFEIPRP", "Escherichia coli TOP10", -0.17),
    ("RRIRFRPPRLPRPRPRPPYTPRP", "Escherichia coli TOP10", -0.419),
    ("RRIRNRPPRLPRPRPRPDCMPRP", "Escherichia coli TOP10", 0.113),
    ("RRIRMRPPRLPRPRPRPFWLPRP", "Escherichia coli TOP10", -0.179),
    ("RRIRYRPPRLPRPRPRPLKRPRP", "Escherichia coli TOP10", -0.234),
    ("RRIRTRPPRLPRPRPRPPSEPRP", "Escherichia coli TOP10", 0.42),
    ("RRIRHRPPRLPRPRPRPGGNPRP", "Escherichia coli TOP10", 0.00148),
    ("RRIRCRPPRLPRPRPRPHLYPRP", "Escherichia coli TOP10", 1.42),
    ("RRIRDRPPRLPRPRPRPHTKPRP", "Escherichia coli TOP10", 0.0345),
    ("RRIRYRPPRLPRPRPRPTWWPRP", "Escherichia coli TOP10", 0.134),
    ("RRIRCRPPRLPRPRPRPRPMPRP", "Escherichia coli TOP10", 0.443),
    ("RRIRARPPRLPRPRPRPQCNPRP", "Escherichia coli TOP10", -0.104),
    ("RRIRFRPPRLPRPRPRPCNDPRP", "Escherichia coli TOP10", -0.122),
    ("RRIRFRPPRLPRPRPRPLRRPRP", "Escherichia coli TOP10", 0.773),
    ("RRIRPRPPRLPRPRPRPTYEPRP", "Escherichia coli TOP10", 0.0844),
    ("RRIRNRPPRLPRPRPRPYTIPRP", "Escherichia coli TOP10", -0.138),
    ("RRIRPRPPRLPRPRPRPACCPRP", "Escherichia coli TOP10", 0.405),
    ("RRIRTRPPRLPRPRPRPFHPPRP", "Escherichia coli TOP10", -0.335),
]

====

System: Escherichia coli TOP10
Experiment summary: shrunken log2 fold change of peptide-encoding DNA abundance (4.5 h post-induction vs induction); higher = less antimicrobial activity (less host growth inhibition)
Test settings: time post-induction: 4.5 h; library: site-saturation at positions 5, 18, 19, 20
# Lookup of reported shrunken log2 fold change keyed by entry
Measurement label: shrunken log2 fold change

# Biopolymer sequence, Result
data = [
    ("RRIRYRPPRLPRPRPRPNLHPRP", -0.821),
    ("RRIRFRPPRLPRPRPRPISKPRP", -0.0939),
    ("RRIRLRPPRLPRPRPRPPINPRP", -0.00991),
    ("RRIRARPPRLPRPRPRPHLFPRP", 0.117),
    ("RRIRIRPPRLPRPRPRPEQKPRP", 2.45),
    ("RRIRFRPPRLPRPRPRPNRIPRP", -0.619),
    ("RRIRRRPPRLPRPRPRPDMAPRP", 0.373),
    ("RRIRYRPPRLPRPRPRPQIYPRP", -0.132),
    ("RRIRCRPPRLPRPRPRPTAHPRP", 0.181),
    ("RRIRDRPPRLPRPRPRPDAAPRP", 1.67),
    ("RRIRFRPPRLPRPRPRPHLLPRP", -0.428),
    ("RRIRMRPPRLPRPRPRPDCKPRP", -0.0414),
    ("RRIRSRPPRLPRPRPRPRGKPRP", 0.0832),
    ("RRIRVRPPRLPRPRPRPFHWPRP", -0.0122),
    ("RRIRIRPPRLPRPRPRPYCLPRP", -0.259),
    ("RRIRGRPPRLPRPRPRPSPFPRP", 0.168),
    ("RRIRQRPPRLPRPRPRPQYAPRP", -0.176),
    ("RRIRTRPPRLPRPRPRPLFGPRP", -0.186),
    ("RRIRRRPPRLPRPRPRPAPHPRP", 0.858),
    ("RRIRWRPPRLPRPRPRPRAMPRP", 0.363),
    ("RRIRSRPPRLPRPRPRPLNLPRP", -0.539),
    ("RRIRNRPPRLPRPRPRPVWHPRP", -0.154),
    ("RRIRGRPPRLPRPRPRPEPLPRP", 0.341),
    ("RRIRCRPPRLPRPRPRPERLPRP", 0.0345),
    ("RRIRDRPPRLPRPRPRPEHGPRP", 0.0582),
    ("RRIRVRPPRLPRPRPRPIRDPRP", 0.0875),
    ("RRIRNRPPRLPRPRPRPMAIPRP", -0.00192),
    ("RRIRSRPPRLPRPRPRPGTAPRP", 0.33),
    ("RRIRIRPPRLPRPRPRPSLAPRP", 0.0113),
    ("RRIRQRPPRLPRPRPRPAKYPRP", -0.0291),
    ("RRIRWRPPRLPRPRPRPSTMPRP", -0.284),
    ("RRIRHRPPRLPRPRPRPADNPRP", -0.306),
]

====

Test system: Escherichia coli TOP10;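 further: peptides expressed intracellularly from a pBAD plasmid library in pooled LB shake-flask culture, induced with 0.3% L-arabinose, DNA abundance read by NGS, three biological replicates, DESeq2 with apeglm shrinkage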
Experiment summary: shrunken log2 fold change of peptide-encoding DNA abundance (4.5 h post-induction vs induction); higher = less antimicrobial activity (less host growth inhibition)
Test settings: time post-induction: 4.5 h; library: site-saturation at positions 5, 18, 19, 20
Measured shrunken log2 fold change, listed per entry.

# Biopolymer sequence, shrunken log2 fold change
measured = [
    ("RRIRNRPPRLPRPRPRPKSLPRP", -0.433),
    ("RRIRTRPPRLPRPRPRPKNWPRP", 0.183),
    ("RRIRCRPPRLPRPRPRPMICPRP", -0.0738),
    ("RRIRSRPPRLPRPRPRPNIRPRP", 0.0389),
    ("RRIRRRPPRLPRPRPRPIAFPRP", -0.0124),
    ("RRIRMRPPRLPRPRPRPHEVPRP", 0.16),
    ("RRIRWRPPRLPRPRPRPFSQPRP", -0.0772),
    ("RRIRFRPPRLPRPRPRPAQPPRP", 0.277),
    ("RRIRDRPPRLPRPRPRPEWRPRP", 1.08),
    ("RRIRYRPPRLPRPRPRPRMLPRP", -1.08),
    ("RRIRWRPPRLPRPRPRPAPKPRP", 0.992),
    ("RRIRHRPPRLPRPRPRPMCVPRP", -0.192),
    ("RRIRTRPPRLPRPRPRPVQSPRP", -0.00991),
    ("RRIRCRPPRLPRPRPRPNRFPRP", 2.96),
    ("RRIRKRPPRLPRPRPRPMWLPRP", 0.642),
]
